B1: tRNA (parent)
chain: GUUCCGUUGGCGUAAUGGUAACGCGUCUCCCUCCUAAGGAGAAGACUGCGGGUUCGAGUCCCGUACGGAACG

# Variants of: B1
# Assay info: yeast fitness relative to wild type (ratio to wild type); higher = fitter; tRNA-Arg(CCU), competitive growth, 37 C, YPD
Variants at the floor of the assay were thinned out.
Please provide measured yeast fitness for the entries that follow.
One number for each entry.

// input: 7 variants below; output: yeast fitness for each
1. GUUCCGUUGGCGUAAUGGUAACGCGUAUCCCUCCUAAGGAGAAGAUUGCGGGUUCGAGUCCCGUACAGAACG
2. GUUCCGUUGGCGUAAUCGUAACGGGUCUCCCUCUUAAGGAGAAGACUGCGGGUUCGAGUCCCGUACGGAACG
3. GUUCCGUUGGCGUAAUGGUAACGCGUCUCCAUCCUAAGGAGAAGACUGCGGGUUCGAGUCCCGUACCGAACG
4. GUUCCGUUGGCGUAAUGGUAACGCGUCUCCCUCCUAAGGAGAAGACUGCGGGUCCGAGUCCCGUACCGAACG
5. GUUCGGUUGGCGUAAUGGUAACGCGUCUCCCUCCUAAGGAGAAGAUUGCGGGAUCGAGUCCCGUACGGAACG
6. GUUACGUUCGCGUAAUGGUAACGCGUCUCACUCCUAAGAAGAAGACUGCGGGUUCGAGUCCCGUACGGAACG
7. GUUCCGUUGGCGUAAUGGUAACGCGUCUCCCUCCUAAGGAGAAGGCUGCGGGUUCGAGUCCCGUACGGCACG

1: 0.699; 2: 0.527; 3: 0.846; 4: 0.944; 5: 0.529; 6: 0.51; 7: 0.912

// input: 6 variants below; output: yeast fitness for each
1. GUUCCGUUGGCGUAAUGAUAACGCAUCUCCCUCCUAAGGAGAAGACUGCGGGUUCGAGUCCCGUACGGAACG
2. GUUCCGUUGGCGUACUGGUAACGCGUCUCCCUCCUAAGGAGAAGACUGCGGGUUCGGGUCCCGUACGGAACG
3. GUUCUGUUGGCGUAAUGGUAACGCGUCUCCCUCCUAAGGAGUAGACUGGGGGUUCGAGUACCGUACGGAACG
4. GUUCCGUUGGCGUAAUCGUAACGCGUCUCCCUCCUGAGGAGAAGACUGCGGGUUCGGGUCCCGUAUGGCACG
5. GUUCCGUUGGCGUAAUGGUAAGGCGUGUGCCUCAUAAGGAGAACACUGCGGGUUCAGGUCCCGUACGGAACG
6. GUUCCAUUGGCGUAAUGGUAACGUGUCUCCCUCCUAAGGAGAAGACUGCGGGUUCGAGUCCCGUACAGAACG

1. 0.665
2. 0.812
3. 0.575
4. 0.59
5. 0.529
6. 0.72

// input: 5 variants below; output: yeast fitness for each
1. GUUCCGUUGGCGUAAUGGUAACGCGUCUCCCUCCUAAGGAGAAGACUGCGGGUUAGAGUCCCAUACGGAACG
2. GUUCCGUUGGCGUAAUGGUAAUGCGUCUCCGUCCUAAGGAGAAGACUGUGGGUUCGAGUCCCGUAUAGAACG
3. GUUCCAUUGGCGUAAUGGUAACGCGUCUCGCUCCUAAGGAGAAGACUGCGGGUUCGAGUCCCGUACGGAACG
4. GUUCCGUUGGCGUAAUGGUAACGCGUCUCCCUCCUAAGGAGAAGACUGCGGGUUCGAGUCCCGUGCGGUACG
5. GUUCCGUUGGCGUUAUGGUAACGCGUCUCGCUCCUAAGGAGAAGACUGCGGGUUCGAGUCCCGUACGGAACG

[0.55, 0.563, 0.711, 0.993, 0.516]

// input: 4 variants below; output: yeast fitness for each
1. GCUCCGUUGGCGUAAUGGUAACGCGUCUCCCUCCUAAGGCGAAGACUGCGGCUUCGAGUCCCGUACGGAACG
2. GUUCCGUUGGCGUAAUGGUAACGCGAUUCCCUCCUAAGGAGAAGACUGCGGGUUCGAGUCCCGUGCGGGACG
3. GUUCCGUUGGCGUAAUGGUAACGCGUCUCCAUCCUAAGGAGGAGACUGCGGGUUCGAGUCCCGUACAGUACG
4. GUUCCGUUGGCGUAAUGGUAACGCGUCUCCCUCCUAAGGAGAAGGCUGCGGGUUCGAGUCCCGUGCGGAACG

1: 0.528; 2: 0.669; 3: 0.625; 4: 1.04

Values compiled from the RNAGym collection of RNA variant scans (doi:10.1126/science.aae0568).
